Target: huNav1.7α (human, UniProt Q15858 1-1988)
Experiment: cell-based or functional assay
PARAMETER_MEASURED: 2-pulse IC50 [M], P1 (M)

>>> readout_value("F010300477 (VHH, vs F0103275B05: A94W) VHH: EVQLVESGGGLVQPGGSLRLSCAASGSIFNINSMAWYRRAPGKQRELVASSTNGGSTNYADSVKGRFTISRDNAKRVYLQMNSLTPEDTAVYYCNWLLQPSIYDISRTYWGQGTLVTVSS")
"2e-06"
>>> readout_value("F010300684 (VHH, vs F0103275B05: S27P, I28V, I31W, N53P, N93R, T101I) VHH: EVQLVESGGGLVQPGGSLRLSCAASGPVFNWNSMAWYRRAPGKQRELVASSTPGGSTNYADSVKGRFTISRDNAKRVYLQMNSLTPEDTAVYYCRALLQPSIYDISRIYWGQGTLVTVSS")
"2e-06"
>>> readout_value("F010300468 (VHH, vs F0103275B05: N93R; also called F0103275B05(N93R)+FLAG3-HIS6; F103275B05(N93R)) VHH: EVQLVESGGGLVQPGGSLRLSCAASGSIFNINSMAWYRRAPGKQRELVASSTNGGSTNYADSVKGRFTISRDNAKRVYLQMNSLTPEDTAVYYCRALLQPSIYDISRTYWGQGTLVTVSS")
"5e-06"
>>> readout_value("F010300659 (VHH, also called F0103275B05(S27P, I28V, S50Y, N53P, G55W, S56D, T57W, N93R, A94W)+FLAG3-HIS6) VHH: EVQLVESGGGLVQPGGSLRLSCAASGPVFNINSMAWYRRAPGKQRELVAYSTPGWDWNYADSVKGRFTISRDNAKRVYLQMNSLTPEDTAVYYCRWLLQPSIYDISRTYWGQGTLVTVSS")
"1e-06"
>>> readout_value("F010300316 (VHH, vs F0103275B05: T57W) VHH: EVQLVESGGGLVQPGGSLRLSCAASGSIFNINSMAWYRRAPGKQRELVASSTNGGSWNYADSVKGRFTISRDNAKRVYLQMNSLTPEDTAVYYCNALLQPSIYDISRTYWGQGTLVTVSS")
"2e-06"
>>> readout_value("F010300631 (VHH, vs F0103275B05: S27P, I28V, S50Y, N53P, N93R) VHH: EVQLVESGGGLVQPGGSLRLSCAASGPVFNINSMAWYRRAPGKQRELVAYSTPGGSTNYADSVKGRFTISRDNAKRVYLQMNSLTPEDTAVYYCRALLQPSIYDISRTYWGQGTLVTVSS")
"1e-06"
